Tested on: Huh-7
Measurement protocol: Cytotoxic concentration against HCV RNA replication in a subgenomic replicon Huh7 cell line
Assay type: functional
Settings: Homo sapiens
Property label: CC50 (µM)
Numbers only; they are read as µM.

{"Compound": "OC1[C@@H](O)[C@H]2O[C@@H]1Cn1nnc3ccc(=S)n2c31 (single isomer, unassigned)", "System tested": "Huh-7", "CC50 / µM": 11.9}

Attention now turns to another entry.
stdin: Bench note: what CC50 did CNc1cc(=O)n2c3c1nnn3C[C@H]1O[C@@H]2[C@H](O)C1O (single isomer, unassigned) show?
stdout: 4.6

###

Tested on: Huh-7
Measurement protocol: Cytotoxic concentration against HCV RNA replication in a subgenomic replicon Huh7 cell line
Assay type: functional
Settings: Homo sapiens
Consider the following compounds and their measured CC50 readings.
Numbers only; they are read as µM.

# example entries with known answers
{"Compound": "O=c1ccc2nnn3c2n1[C@@H]1O[C@H](C3)C(O)[C@H]1O (single isomer, unassigned)", "System tested": "Huh-7", "Reported result": 30.6}
{"Compound": "Cc1cc(=O)n2c3c1nnn3C[C@H]1O[C@@H]2[C@H](O)C1O (single isomer, unassigned)", "System tested": "Huh-7", "Reported result": 22.6}

Attention now turns to another entry.
stdin: Lab request: please report CC50 under test system Huh-7 for O=c1c(Cl)cc2nnn3c2n1[C@@H]1O[C@H](C3)C(O)[C@H]1O (single isomer, unassigned)
stdout: 0.06

###

Tested on: Huh-7
Measurement protocol: Cytotoxic concentration against HCV RNA replication in a subgenomic replicon Huh7 cell line
Format: functional
Settings: Homo sapiens
Property label: CC50

# example entries with known answers
{"Molecule": "O=c1cc(NCCCO)c2nnn3c2n1[C@@H]1O[C@H](C3)C(O)[C@H]1O (single isomer, unassigned)", "Reported result": "> 100 µM"}
{"Molecule": "O=c1c(Br)cc2nnn3c2n1[C@@H]1O[C@H](C3)C(O)[C@H]1O (single isomer, unassigned)", "Reported result": "1.5 µM"}
{"Molecule": "CN(C)c1cc(=O)n2c3c1nnn3C[C@H]1O[C@@H]2[C@H](O)C1O (single isomer, unassigned)", "Reported result": "> 100 µM"}

stdin: Lab request: please report CC50 under test system Huh-7 for COCCNc1cc(=O)n2c3c1nnn3C[C@H]1O[C@@H]2[C@H](O)C1O (single isomer, unassigned)
stdout: 97.3 µM

stdin: Lab request: please report CC50 under test system Huh-7 for Nc1cc(=O)n2c3c1nnn3C[C@H]1O[C@@H]2[C@H](O)C1O (single isomer, unassigned)
stdout: 74.2 µM

stdin: Lab request: please report CC50 under test system Huh-7 for O=c1cc(NC2CC2)c2nnn3c2n1[C@@H]1O[C@H](C3)C(O)[C@H]1O (single isomer, unassigned)
stdout: > 100 µM

stdin: Lab request: please report CC50 under test system Huh-7 for O=c1cc(NCCO)c2nnn3c2n1[C@@H]1O[C@H](C3)C(O)[C@H]1O (single isomer, unassigned)
stdout: > 100 µM
